tested on: MCF7 (breast cancer) cell line; assay: MTT cytotoxicity assay, MCF7 cells; assay type: cell-based, human; settings: Homo sapiens, MCF7, 72 h, read-out: IC50, MCF7
Property measured: IC50 (µM)
# number only, unit µM dropped from output

### Prompt Fill blank: measured IC50 of the compound O=C1OCC2=C1C1(C(=O)Nc3c(Br)cc(Br)cc31)C1=C(N2)C(=O)c2ccccc2C1=O (stereo not shown) is ____.
### Response 1.84

### Prompt Entry Cc1c2ccncc2c(C)c2c1[nH]c1ccccc12 [Ellipticine, reference compound] has what IC50?
### Response 2.07

### Prompt IC50 lookup needed for Cc1ccc2c(c1)N(Cc1ccc(Br)cc1F)C(=O)C21C2=C(COC2=O)NC2=C1C(=O)c1ccccc1C2=O (stereo not shown) , thanks.
### Response 19.9

### Prompt Need IC50, item Cc1ccc2c(c1)C1(C(=O)N2)C2=C(COC2=O)NC2=C1C(=O)c1ccccc1C2=O (stereo not shown)
### Response 4.17
